These entries and their values trace back to the kinase profiling compilation of Christmann-Franck et al. (2016).

Test system SGK1 (human), Ki listed for each of the molecules.
parameter: Ki (µM)

1 = O=C(NCC1CCCCC1)c1cc2c(-c3ccccc3)n[nH]c2s1
2 = CCCC(=O)Nc1cccc(-c2nc(Nc3ccc4[nH]ncc4c3)c3cc(OCCN4CCCC4)ccc3n2)c1
Lab log: flag the item ( 1 or 2 ) with the smaller Ki figure. Field: selected label. Fill in the label of the entry you choose. 2

###

experimental-target: SGK1 (human) (UniProt O00141)
Sequence (O00141 whole entry, looked up): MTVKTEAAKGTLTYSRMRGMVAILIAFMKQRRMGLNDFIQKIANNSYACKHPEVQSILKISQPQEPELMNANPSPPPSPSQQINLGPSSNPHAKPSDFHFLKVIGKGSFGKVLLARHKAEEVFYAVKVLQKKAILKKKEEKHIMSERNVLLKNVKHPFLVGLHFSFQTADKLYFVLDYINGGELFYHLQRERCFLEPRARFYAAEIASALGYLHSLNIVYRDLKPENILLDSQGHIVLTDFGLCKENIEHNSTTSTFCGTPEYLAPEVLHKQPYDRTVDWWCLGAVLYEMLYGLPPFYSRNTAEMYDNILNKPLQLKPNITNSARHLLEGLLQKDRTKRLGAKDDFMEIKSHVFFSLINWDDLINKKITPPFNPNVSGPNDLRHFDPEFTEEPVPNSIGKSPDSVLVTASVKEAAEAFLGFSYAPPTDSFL
pKi: −log10 of the molar value.
Reported pKi by item:

// known answers, use as guide
# smiles-structure, recorded-value
data = [
    ("CN1CCN(Cc2ccc3c(c2)Cc2c(-c4csc(C#CCOCC5CC5)c4)n[nH]c2-3)CC1", "< 5.00"),
    ("N#Cc1ccc(-c2n[nH]c3c2Cc2ccc(OCCCCN4CCOCC4)cc2-3)cn1", "< 5.00"),
]

The reported pKi value, SGK1 (human) (UniProt O00141), for COc1ccc(CNc2c(Nc3ccncc3)c(=O)c2=O)c(OC)c1 reads < 5.00

###

Test system SGK1 (human) (UniProt O00141), Ki listed for each of the compounds.

# compound, Ki
data = [
    ("Cc1cccc(Nc2nc(N[C@@H]3CCCC[C@@H]3N)cnc2C(N)=O)c1", "> 7.94 µM"),
    ("CCc1nccn2c(-c3ccnc(NCC(C)(C)O)n3)c(-c3ccc(F)cc3F)nc12", "> 10 µM"),
    ("CN1CC[C@H]1COc1cncc(CCc2ccncc2)c1", "> 10 µM"),
    ("O=c1c(NCCc2ccc(Oc3ccccc3)cc2)c(Nc2ccncc2)c1=O", "> 10 µM"),
    ("O=C1NCCc2[nH]c(-c3ccnc(-c4cnc5ccccc5c4)c3)cc21", "> 10 µM"),
]

Lab book: Ki of O=C1Nc2ccccc2Nc2ccccc21 noted as > 10 µM

Lab book: Ki of COc1cc(OC)c(Nc2ccc3nnc(-c4ccccc4)n3n2)cc1Cl noted as > 10 µM

Lab book: Ki of Cc1c[nH]c2nccc(Oc3c(F)cc(Nc4cc(Cl)nc(N)n4)cc3F)c12 noted as 0.251 µM

###

Reported pKi by item:
experimental-target: SGK1 (human) (UniProt O00141)
pKi: −log10 of the molar value.

// known answers, use as guide
# smiles-structure, pKi
rows = [
    ("c1cc2[nH]ncc2cc1-c1cn(CC2CCOCC2)nn1", 5.10),
    ("Nc1ncnc2scc(-c3ccc(NC(=O)Nc4cc(C(F)(F)F)ccc4F)cc3)c12", 5.50),
    ("Cc1ccc(F)c(NC(=O)Nc2ccc(-c3cncc4c3c(N)nn4C)cc2)c1", "< 5.00"),
]

Lab book: pKi of O=C(CO)N1CCC(c2[nH]nc(-c3ccc(Cl)cc3F)c2-c2ccncn2)CC1 noted as < 5.00

Lab book: pKi of N#Cc1ncc2nc1OCCCCCOc1cc(OCCCO)c(Cl)cc1NC(=O)N2 noted as < 5.00

Lab book: pKi of Cn1cc(-c2cnc(N)c3c(-c4ccc(NC(=O)Nc5ccc(OC(F)F)cc5)cc4)csc23)cn1 noted as < 5.00

Lab book: pKi of O=C(N[C@H](CO)Cc1ccccc1)c1ccc(-c2ccncc2)cc1F noted as < 5.00

Lab book: pKi of CNCc1ccc(-c2[nH]c3cc(F)cc4c3c2CCNC4=O)cc1 noted as < 5.00

###

pKi: −log10 of the molar value.
Test system SGK1 (human) (UniProt O00141), pKi listed for each of the compounds.

# smiles-structure, experimental-target, parameter, recorded-value
measured = [
    ("Cc1cccc(NC(=O)Nc2ccc(-c3csc4nc(N)nc(N)c34)cc2)c1", "SGK1 (human) (UniProt O00141)", "pKi", "< 5.00"),
]

The reported pKi value, SGK1 (human) (UniProt O00141), for CNC(=O)c1ccccc1Sc1ccc2c(/C=C/c3ccccn3)n[nH]c2c1 reads < 5.00

The reported pKi value, SGK1 (human) (UniProt O00141), for Cc1cc(NC(=O)CCNC(=O)Nc2nc(C)c(-c3ccc(-n4cccn4)cc3)s2)no1 reads < 5.00

###

Test system SGK1 (human), pKi listed for each of the compounds.
pKi: −log10 of the molar value.

The reported pKi value, SGK1 (human), for CCCOn1c2ccc(Cl)cc2c(=O)c2c(C)nn(C)c21 reads < 5.00

The reported pKi value, SGK1 (human), for Cc1c(C)n(Cc2ccccc2)c2ccc(C(=O)Nc3nc[nH]n3)cc12 reads < 5.00

The reported pKi value, SGK1 (human), for Cc1cc(C)c(/C=C2\C(=O)Nc3ccccc32)[nH]1 reads 5.70

The reported pKi value, SGK1 (human), for COc1cc(Nc2ncnc3ccc(-c4ccc(CN5C[C@@H]6C(CO)[C@@H]6C5)cc4)cc23)ccc1Oc1ccccc1 (some centres undefined) reads < 5.00

The reported pKi value, SGK1 (human), for CCc1nc2c(c3cc(OC)c(OC)cc13)C(=O)NC2=O reads < 5.00

The reported pKi value, SGK1 (human), for Cc1nccn2c(-c3ccnc(NCC(C)(C)C(=O)O)n3)c(-c3ccc(F)cc3F)nc12 reads < 5.00

The reported pKi value, SGK1 (human), for Cc1cccc(-c2c(-c3ccncc3)nc(NC[C@@H](N)Cc3ccccc3)n(C)c2=O)c1 reads < 5.00

The reported pKi value, SGK1 (human), for CC[C@H](CO)Nc1nc(NCc2ccccc2)c2ncn(C(C)C)c2n1 reads < 5.00

The reported pKi value, SGK1 (human), for Cc1cccc(NC(=O)Nc2ccc(-c3csc4c(C#CCN5CCCC5)cnc(N)c34)cc2)c1 reads 5.30
